Measured values drawn from ChEMBL document CHEMBL5370591 for this set.

# System: Staphylococcus aureus
# Protocol Details: Antibacterial activity against vancomycin-resistant Staphylococcus aureus clinical isolate 1 assessed as inhibition of bacterial growth by broth microdilution method
# Assay type: functional
Would you kindly list MIC for each of these molecules?

Considering CCc1c(Cl)c(O)c(Cl)c(O)c1C(=O)O[C@H]1[C@H](O)[C@H](OC)[C@H](OC/C2=C\C=C\C[C@H](O)/C(C)=C/[C@H](CC)[C@@H](O[C@@H]3OC(C)(C)[C@@H](OC(=O)C(C)C)[C@H](O)[C@@H]3O)/C(C)=C/C(C)=C/C[C@@H]([C@@H](C)O)OC2=O)O[C@@H]1C [FIDAXOMICIN] , its MIC with Staphylococcus aureus was recorded as 64 µg/mL

Considering Oc1ccc(-c2nc(-c3ccc(OC4CCCC4)cc3)no2)cc1 , its MIC with Staphylococcus aureus was recorded as 2 µg/mL

Considering FC(F)(F)c1ccc(Oc2ccc(-c3noc(-c4ccc5[nH]ccc5c4)n3)cc2)cc1 , its MIC with Staphylococcus aureus was recorded as 2 µg/mL

Considering CN[C@H](CC(C)C)C(=O)N[C@H]1C(=O)N[C@@H](CC(N)=O)C(=O)N[C@H]2C(=O)N[C@H]3C(=O)N[C@H](C(=O)N[C@H](C(=O)O)c4cc(O)cc(O)c4-c4cc3ccc4O)[C@H](O)c3ccc(c(Cl)c3)Oc3cc2cc(c3O[C@@H]2O[C@H](CO)[C@@H](O)[C@H](O)[C@H]2O[C@H]2C[C@](C)(N)[C@H](O)[C@H](C)O2)Oc2ccc(cc2Cl)[C@H]1O [VANCOMYCIN] , its MIC with Staphylococcus aureus was recorded as 64 µg/mL

Considering Cc1ncc([N+](=O)[O-])n1CCO [METRONIDAZOLE] , its MIC with Staphylococcus aureus was recorded as > 256 µg/mL

---

# Tested on: THP-1
# Protocol Details: Cytotoxicity against human THP-1 cells assessed as increase in LDH release incubate for 24 hrs by trypan-blue staining based analysis
# Type: functional, cell-based
# Condition Parameters: THP-1, 24 h
Label Condition met when IC50 is strictly below 20 µg/mL; at or above that, label Condition not met.

Lab log: compare recorded IC50 with 20 µg/mL; is it strictly lower for Oc1ccc(-c2nc(-c3ccc(OC4CCCCC4Br)cc3)no2)cc1 (stereo unspecified) ?
Condition met

Lab log: compare recorded IC50 with 20 µg/mL; is it strictly lower for O=[N+]([O-])c1c[nH]nc1-c1nc(-c2ccc(Oc3ccc(I)cc3)cc2)no1 ?
Condition not met

Lab log: compare recorded IC50 with 20 µg/mL; is it strictly lower for Oc1ccc(-c2nc(-c3ccc(Oc4cccc(I)c4)cc3)no2)cc1 ?
Condition met

Lab log: compare recorded IC50 with 20 µg/mL; is it strictly lower for Oc1ccc(-c2nc(-c3ccc(OC4CCCC4)cc3)no2)cc1 ?
Condition met

Lab log: compare recorded IC50 with 20 µg/mL; is it strictly lower for O=[N+]([O-])c1c[nH]c(-c2nc(-c3ccc(OC4CCCC4)cc3)no2)n1 ?
Condition not met

Lab log: compare recorded IC50 with 20 µg/mL; is it strictly lower for O=[N+]([O-])c1c[nH]nc1-c1nc(-c2ccc(Oc3ccc(C(F)(F)F)cc3)cc2)no1 ?
Condition not met

Lab log: compare recorded IC50 with 20 µg/mL; is it strictly lower for FC(F)(F)c1ccc(Oc2ccc(-c3noc(-c4ccc5[nH]ccc5c4)n3)cc2)cc1 ?
Condition not met

Lab log: compare recorded IC50 with 20 µg/mL; is it strictly lower for O=[N+]([O-])c1ccccc1Oc1ccc(-c2noc(-c3ccc(O)cc3)n2)cc1 ?
Condition met

Lab log: compare recorded IC50 with 20 µg/mL; is it strictly lower for Oc1ccc(-c2noc(-c3ccc(OC4CCCC4)cc3)n2)cc1 ?
Condition met

Lab log: compare recorded IC50 with 20 µg/mL; is it strictly lower for O=[N+]([O-])c1c[nH]c(-c2nc(-c3ccc(OC4CCC4)cc3)no2)n1 ?
Condition not met

Lab log: compare recorded IC50 with 20 µg/mL; is it strictly lower for Oc1ccc(-c2nc(-c3ccc(Oc4ccc(C(F)(F)F)cc4)cc3)no2)cc1F ?
Condition met

---

Would you kindly list MIC for each of these compounds?
# Test system: Enterococcus faecium
# Protocol Details: Antibacterial activity against vancomycin susceptible Enterococcus faecium119-39A assessed as inhibition of bacterial growth by broth microdilution method
# Format: functional
# Condition Parameters: 119-39A
Form entry: value (µg/mL) — number only.

Recorded MIC (compound FC(F)(F)c1ccc(Oc2ccc(-c3noc(-c4ccc5[nH]ccc5c4)n3)cc2)cc1 ): 1

Recorded MIC (compound Oc1ccc(-c2nc(-c3ccc(OC4CCCC4)cc3)no2)cc1 ): 2

---

# Protocol Details: Selectivity ratio of IC50 for human HepG2 cells to MIC for Clostridium difficile ATCC 43255
# Format: toxicity
Would you kindly list selectivity ratio for each of these compounds?
Please give only the number in your answer, with no unit.

Recorded selectivity ratio (compound O=[N+]([O-])c1c[nH]c(-c2nc(-c3ccc(OC4CCCC4)cc3)no2)n1 ): 214

Recorded selectivity ratio (compound O=[N+]([O-])c1c[nH]c(-c2nc(-c3ccc(OC4CCC4)cc3)no2)n1 ): 168

---

Would you kindly list IC50 for each of these compounds?
# Tested on: THP-1
# Protocol Details: Cytotoxicity against human THP-1 cells assessed as increase in LDH release incubate for 24 hrs by trypan-blue staining based analysis
# Assay type: functional, cell-based
# Condition Parameters: THP-1, 24 h

Recorded IC50 (compound Oc1ccc(-c2nc(-c3ccc(Oc4ccc(C(F)(F)F)cc4)cc3)no2)cc1 ): 17 µg/mL

Recorded IC50 (compound Oc1ccc(-c2nc(-c3ccc(Oc4ccccc4)cc3)no2)cc1 ): 17 µg/mL

Recorded IC50 (compound O=[N+]([O-])c1cc(-c2nc(-c3ccc(Oc4ccc(C(F)(F)F)cc4)cc3)no2)cnc1O ): 37 µg/mL

Recorded IC50 (compound Oc1c(F)cc(-c2nc(-c3ccc(Oc4ccc(C(F)(F)F)cc4)cc3)no2)cc1F ): 18 µg/mL

Recorded IC50 (compound O=[N+]([O-])c1c[nH]nc1-c1nc(-c2ccc(OC(F)(F)F)cc2)no1 ): 25 µg/mL

---

# Test system: Fusobacterium nucleatum
# Protocol Details: Antibacterial activity against Fusobacterium nucleatum HM-992 assessed as inhibition of bacterial growth by broth microdilution method
# Assay type: functional
Observation Type: MIC (µg/mL)
Form entry: value (µg/mL) — number only.

Recorded MIC (compound Oc1ccc(-c2nc(-c3ccc(OC4CCCC4)cc3)no2)cc1 ): 2

Recorded MIC (compound FC(F)(F)c1ccc(Oc2ccc(-c3noc(-c4ccc5[nH]ccc5c4)n3)cc2)cc1 ): 1

Recorded MIC (compound CN[C@H](CC(C)C)C(=O)N[C@H]1C(=O)N[C@@H](CC(N)=O)C(=O)N[C@H]2C(=O)N[C@H]3C(=O)N[C@H](C(=O)N[C@H](C(=O)O)c4cc(O)cc(O)c4-c4cc3ccc4O)[C@H](O)c3ccc(c(Cl)c3)Oc3cc2cc(c3O[C@@H]2O[C@H](CO)[C@@H](O)[C@H](O)[C@H]2O[C@H]2C[C@](C)(N)[C@H](O)[C@H](C)O2)Oc2ccc(cc2Cl)[C@H]1O ): 0.25

---

# Test system: Bacteroides fragilis
# Protocol Details: Antibacterial activity against Bacteroides fragilis HM-709 assessed as inhibition of bacterial growth by broth microdilution method
# Assay type: functional
Observation Type: MIC (µg/mL)
Form entry: value (µg/mL) — number only.

Considering FC(F)(F)c1ccc(Oc2ccc(-c3noc(-c4ccc5[nH]ccc5c4)n3)cc2)cc1 , its MIC with Bacteroides fragilis was recorded as 4

Considering CN[C@H](CC(C)C)C(=O)N[C@H]1C(=O)N[C@@H](CC(N)=O)C(=O)N[C@H]2C(=O)N[C@H]3C(=O)N[C@H](C(=O)N[C@H](C(=O)O)c4cc(O)cc(O)c4-c4cc3ccc4O)[C@H](O)c3ccc(c(Cl)c3)Oc3cc2cc(c3O[C@@H]2O[C@H](CO)[C@@H](O)[C@H](O)[C@H]2O[C@H]2C[C@](C)(N)[C@H](O)[C@H](C)O2)Oc2ccc(cc2Cl)[C@H]1O [VANCOMYCIN] , its MIC with Bacteroides fragilis was recorded as 16

Considering Oc1ccc(-c2nc(-c3ccc(OC4CCCC4)cc3)no2)cc1 , its MIC with Bacteroides fragilis was recorded as 2
